# TGT: TYK2 JH2 pseudokinase (Homo sapiens)
# Sequence (P29597 589-875 limits assumed): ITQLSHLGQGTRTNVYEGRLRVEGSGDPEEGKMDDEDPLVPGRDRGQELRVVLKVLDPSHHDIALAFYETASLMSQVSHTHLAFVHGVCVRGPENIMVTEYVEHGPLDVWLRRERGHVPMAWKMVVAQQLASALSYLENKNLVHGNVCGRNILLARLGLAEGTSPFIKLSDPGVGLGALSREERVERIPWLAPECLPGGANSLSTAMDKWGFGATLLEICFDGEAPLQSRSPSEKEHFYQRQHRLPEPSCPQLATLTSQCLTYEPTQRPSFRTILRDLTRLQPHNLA
# PROCEDURE_SUMMARY: Inhibitory activity on TYK2 JH2 pseudokinase (TR-FRET)
# CONDITION: 60 min room temperature, read-out: Kinase half maximal inhibitory concentration IC50 TYK2 JH2
OBSERVATION_TYPE: IC50
I'd appreciate it if you included the unit after the number.

Look over these answered cases.
>  <MOLECULE>
CNC(=O)c1nnc(NC(=O)C2CC2)cc1Nc1cccc(-c2ncc(S(=N)(=O)C(C)C)cn2)c1OC (single isomer, unassigned) [WX-011A]

>  <OBSERVATION_TYPE>
IC50

>  <MEASUREMENT>
0.1 nM

$$$$
>  <MOLECULE>
[2H]C([2H])([2H])NC(=O)c1cnc(NC(=O)C2CC2)cc1Nc1cccc(-c2ncc(S(C)(=N)=O)cn2)c1OC (stereo not drawn) [WX-003]

>  <OBSERVATION_TYPE>
IC50

>  <MEASUREMENT>
0.34 nM

$$$$

Field: next molecule
IC50 reading for [2H]C([2H])([2H])NC(=O)c1cnc(NC(=O)C2CC2)cc1Nc1cccc(-c2ccc(S(C)(=O)=O)cn2)c1OC [WX-004] : 0.2 nM
